Attribute: combination Emax
Tested on: L-1236 (Hodgkin's Lymphoma)
Experiment: combination Emax (second highest fraction inhibited in the dose matrix, 72 h); higher = more inhibition; extreme values may be limits of the assay
observation.type: combination Emax

• COc1nnc2ccc(N3CCC(c4ccc(OCCN5CCN(C)C(=O)[C@H]5C)cc4)CC3)nn12 [AZD5153] + Cn1cnc2c(F)c(Nc3ccc(Br)cc3Cl)c(C(=O)NOCCO)cc21 [Selumetinib] (first compound max 1 µM, 7x7, partner max 10 µM) = 1
• Cc1c2c(nn1C)CSCc1cc(n(C)n1)CSc1cc(c3ccccc3c1)OCCCc1c(C(=O)O)n(C)c3c-2c(Cl)ccc13 [AZD5991] + C1CN(CCC1(C(=O)N[C@@H](CCO)C2=CC=C(C=C2)Cl)N)C3=NC=NC4=C3C=CN4 [Capivasertib] (first compound max 1 µM, 7x7, partner max 3 µM) = 0.42
• CN(CCO)CC[C@H](CSc1ccccc1)Nc1ccc(S(=O)(=O)NC(=O)c2ccc(N3CCC([C@@H](O)c4ccccc4-c4ccc(Cl)cc4)CC3)cc2)cc1S(=O)(=O)C(F)(F)F [AZD4320] + Cn1cnc2c(F)c(Nc3ccc(Br)cc3Cl)c(C(=O)NOCCO)cc21 [Selumetinib] (first compound max 1 µM, 7x7, partner max 3 µM) = 0.999
• CN(CCO)CC[C@H](CSc1ccccc1)Nc1ccc(S(=O)(=O)NC(=O)c2ccc(N3CCC([C@@H](O)c4ccccc4-c4ccc(Cl)cc4)CC3)cc2)cc1S(=O)(=O)C(F)(F)F [AZD4320] + C=CCn1c(=O)c2cnc(Nc3ccc(N4CCN(C)CC4)cc3)nc2n1-c1cccc(C(C)(C)O)n1 [AZD1775] (first compound max 1 µM, partner max 1 µM) = 1
• CC1(C)CCC(CN2CCN(c3ccc(C(=O)NS(=O)(=O)c4ccc(NCC5CCOCC5)c([N+](=O)[O-])c4)c(Oc4cnc5[nH]ccc5c4)c3)CC2)=C(c2ccc(Cl)cc2)C1 [Venetoclax] + CCN(CCO)CCCOc1ccc2c(Nc3cc(CC(=O)Nc4cccc(F)c4)[nH]n3)ncnc2c1 [AZD2811] (first compound max 1 µM, 7x7, partner max 1 µM) = 0.718
• CCN(CCO)CCCOc1ccc2c(Nc3cc(CC(=O)Nc4cccc(F)c4)[nH]n3)ncnc2c1 [AZD2811] + O=C(c1cc(Cc2n[nH]c(=O)c3ccccc23)ccc1F)N1CCN(C(=O)C2CC2)CC1 [Olaparib] (first compound max 1 µM, 7x7, partner max 10 µM) = 0.158

---

Tested on: SF539 (Glioblastoma);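 note: after 72 h of two-drug dosing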
Test: Bliss excess, mean over the matrix (fraction); higher = more synergy
Answer f if Bliss excess is under -0.004, and t if it is -0.004 or more.

* Cc1c2c(nn1C)CSCc1cc(n(C)n1)CSc1cc(c3ccccc3c1)OCCCc1c(C(=O)O)n(C)c3c-2c(Cl)ccc13 [AZD5991] + CC(=O)O[C@H]1C(=O)[C@@]2(C)[C@H]([C@H](OC(=O)c3ccccc3)[C@]3(O)C[C@H](OC(=O)[C@H](O)[C@@H](NC(=O)c4ccccc4)c4ccccc4)C(C)=C1C3(C)C)[C@]1(OC(C)=O)CO[C@@H]1C[C@@H]2O [Paclitaxel] (first compound max 1 µM, 7x7, partner max 3 µM) | t
* Cn1cnc2c(F)c(Nc3ccc(Br)cc3Cl)c(C(=O)NOCCO)cc21 [Selumetinib] + C[C@@H]1COCCN1C2=NC(=NC(=C2)C3(CC3)[S@](=N)(=O)C)C4=C5C=CNC5=NC=C4 [AZD6738] (first compound max 10 µM, 7x7, partner max 10 µM) | t
* CCc1c2c(nc3ccc(O)cc13)-c1cc3c(c(=O)n1C2)COC(=O)[C@]3(O)CC [SN-38] + CN(C)CCCOc1ccc(-c2ccc3ncc4c(c3c2)n(C2CCOCC2)c(=O)n4C)cn1 [AZD0156] (first compound max 0.3 µM, 7x7, partner max 1 µM) | t
* C=CCn1c(=O)c2cnc(Nc3ccc(N4CCN(C)CC4)cc3)nc2n1-c1cccc(C(C)(C)O)n1 [AZD1775] + CCc1c2c(nc3ccc(O)cc13)-c1cc3c(c(=O)n1C2)COC(=O)[C@]3(O)CC [SN-38] (first compound max 1 µM, partner max 0.3 µM) | t
* CN(C)CCCOc1ccc(-c2ccc3ncc4c(c3c2)n(C2CCOCC2)c(=O)n4C)cn1 [AZD0156] + C[C@@H]1COCCN1C2=NC(=NC(=C2)C3(CC3)[S@](=N)(=O)C)C4=C5C=CNC5=NC=C4 [AZD6738] (first compound max 1 µM, 7x7, partner max 10 µM) | t
* C[C@@H](c1ccc2nccn2c1)n1nnc2ncc(-c3cnn(C)c3)nc21 [Savolitinib] + Cc1c2c(nn1C)CSCc1cc(n(C)n1)CSc1cc(c3ccccc3c1)OCCCc1c(C(=O)O)n(C)c3c-2c(Cl)ccc13 [AZD5991] (first compound max 1 µM, 7x7, partner max 1 µM) | f
